Target: T1, mouse EphA2 ectodomain (mouse, UniProt Q03145 26-538)
T1 construct: extracellular domain
T1 sequence (Q03145 26-538): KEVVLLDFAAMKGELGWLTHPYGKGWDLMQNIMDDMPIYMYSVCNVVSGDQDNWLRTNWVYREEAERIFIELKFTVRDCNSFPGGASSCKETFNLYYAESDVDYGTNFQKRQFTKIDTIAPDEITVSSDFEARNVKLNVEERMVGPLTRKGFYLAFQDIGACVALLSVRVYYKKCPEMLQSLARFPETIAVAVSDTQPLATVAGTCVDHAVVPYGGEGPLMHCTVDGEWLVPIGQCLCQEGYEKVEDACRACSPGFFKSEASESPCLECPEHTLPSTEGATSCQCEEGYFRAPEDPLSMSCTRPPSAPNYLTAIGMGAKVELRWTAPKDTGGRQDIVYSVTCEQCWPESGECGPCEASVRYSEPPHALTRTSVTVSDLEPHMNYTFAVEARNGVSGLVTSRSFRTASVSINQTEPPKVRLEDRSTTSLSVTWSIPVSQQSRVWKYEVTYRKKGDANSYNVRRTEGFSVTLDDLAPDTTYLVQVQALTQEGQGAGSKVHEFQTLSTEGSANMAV
Test: SPR (Biacore 8k), Fab-capture, 37C, 1:1 model;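 note: Anti-EphA2 IgG captured via immobilized anti-Fab, soluble EphA2 ectodomain as analyte at six twofold dilutions from 50 nM, HBS-EP+ pH 7.6 running buffer, double reference subtraction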
# reported koff; entries follow
Return type: number; implicit unit s⁻¹.

Here's what some known entries look like.
binder | recorded result
anti-EphA2 E152C S375C 1C1 (LC S93V) hIgG1 (WT Heavy Chain) (antibody, V domains shown, also called PA-62-QD06) VH: EVQLLESGGGLVQPGGSLRLSCAASGFTFSHYMMAWVRQAPGKGLEWVSRIGPSGGPTHYADSVKGRFTISRDNSKNTLYLQMNSLRAEDTAVYYCAGYDSGYDYVAVAGPAEYFQHWGQGTLVTVSS VL: DIQMTQSPSSLSASVGDRVTITCRASQSISTWLAWYQQKPGKAPKLLIYKASNLHTGVPSRFSGSGSGTEFSLTISGLQPDDFATYYCQQYNVYSRTFGQGTKVEIKR | 0.0508
anti-EphA2 E152C S375C 1C1 (LC N92Q) hIgG1 (WT Heavy Chain) (antibody, V domains shown, also called 1C1 N92Q IgG; DE-54-AX20) VH: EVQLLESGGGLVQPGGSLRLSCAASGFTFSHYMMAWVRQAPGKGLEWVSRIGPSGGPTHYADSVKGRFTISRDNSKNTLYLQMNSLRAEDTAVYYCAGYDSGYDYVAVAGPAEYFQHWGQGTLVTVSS VL: DIQMTQSPSSLSASVGDRVTITCRASQSISTWLAWYQQKPGKAPKLLIYKASNLHTGVPSRFSGSGSGTEFSLTISGLQPDDFATYYCQQYQSYSRTFGQGTKVEIKR | 0.0661
anti-EphA2 E152C S375C 1C1 (LC S93A) hIgG1 (WT Heavy Chain) (antibody, V domains shown, also called HD-58-MP05) VH: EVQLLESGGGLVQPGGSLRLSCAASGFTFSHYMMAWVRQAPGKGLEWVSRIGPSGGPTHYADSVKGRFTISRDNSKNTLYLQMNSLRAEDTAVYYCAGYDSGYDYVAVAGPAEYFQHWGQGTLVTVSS VL: DIQMTQSPSSLSASVGDRVTITCRASQSISTWLAWYQQKPGKAPKLLIYKASNLHTGVPSRFSGSGSGTEFSLTISGLQPDDFATYYCQQYNAYSRTFGQGTKVEIKR | 0.0625
anti-EphA2 E152C S375C 1C1 (LC S72T) hIgG1 (WT Heavy Chain) (antibody, V domains shown, also called 1C1 S72T IgG; FE-76-NO13) VH: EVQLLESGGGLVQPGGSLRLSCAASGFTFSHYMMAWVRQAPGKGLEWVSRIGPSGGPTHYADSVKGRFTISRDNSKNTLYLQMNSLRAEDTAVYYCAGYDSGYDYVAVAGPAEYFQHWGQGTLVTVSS VL: DIQMTQSPSSLSASVGDRVTITCRASQSISTWLAWYQQKPGKAPKLLIYKASNLHTGVPSRFSGSGSGTEFTLTISGLQPDDFATYYCQQYNSYSRTFGQGTKVEIKR | 0.0512
anti-EphA2 E152C S375C 1C1 (LC S10T_S72T_G77S) hIgG1 (WT Heavy Chain) (antibody, V domains shown, also called 3x germ) VH: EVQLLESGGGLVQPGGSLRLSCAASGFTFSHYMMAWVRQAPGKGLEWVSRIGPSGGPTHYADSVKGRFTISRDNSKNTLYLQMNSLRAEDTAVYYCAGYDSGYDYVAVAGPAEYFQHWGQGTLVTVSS VL: DIQMTQSPSTLSASVGDRVTITCRASQSISTWLAWYQQKPGKAPKLLIYKASNLHTGVPSRFSGSGSGTEFTLTISSLQPDDFATYYCQQYNSYSRTFGQGTKVEIKR | 0.0635

Now consider the entry below.
Query (binder): anti-EphA2 E152C S375C 1C1 (LC S93Q) hIgG1 (WT Heavy Chain) (antibody, V domains shown, also called DA-62-QP06) VH: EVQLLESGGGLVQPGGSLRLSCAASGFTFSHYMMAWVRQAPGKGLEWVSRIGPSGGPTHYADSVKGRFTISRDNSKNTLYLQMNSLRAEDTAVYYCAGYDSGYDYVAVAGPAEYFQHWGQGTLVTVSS VL: DIQMTQSPSSLSASVGDRVTITCRASQSISTWLAWYQQKPGKAPKLLIYKASNLHTGVPSRFSGSGSGTEFSLTISGLQPDDFATYYCQQYNQYSRTFGQGTKVEIKR ; field requested: koff
0.0552
